# Study System: Lethal factor (Bacillus anthracis) (UniProt P15917)
# Sequence (P15917 whole entry, looked up): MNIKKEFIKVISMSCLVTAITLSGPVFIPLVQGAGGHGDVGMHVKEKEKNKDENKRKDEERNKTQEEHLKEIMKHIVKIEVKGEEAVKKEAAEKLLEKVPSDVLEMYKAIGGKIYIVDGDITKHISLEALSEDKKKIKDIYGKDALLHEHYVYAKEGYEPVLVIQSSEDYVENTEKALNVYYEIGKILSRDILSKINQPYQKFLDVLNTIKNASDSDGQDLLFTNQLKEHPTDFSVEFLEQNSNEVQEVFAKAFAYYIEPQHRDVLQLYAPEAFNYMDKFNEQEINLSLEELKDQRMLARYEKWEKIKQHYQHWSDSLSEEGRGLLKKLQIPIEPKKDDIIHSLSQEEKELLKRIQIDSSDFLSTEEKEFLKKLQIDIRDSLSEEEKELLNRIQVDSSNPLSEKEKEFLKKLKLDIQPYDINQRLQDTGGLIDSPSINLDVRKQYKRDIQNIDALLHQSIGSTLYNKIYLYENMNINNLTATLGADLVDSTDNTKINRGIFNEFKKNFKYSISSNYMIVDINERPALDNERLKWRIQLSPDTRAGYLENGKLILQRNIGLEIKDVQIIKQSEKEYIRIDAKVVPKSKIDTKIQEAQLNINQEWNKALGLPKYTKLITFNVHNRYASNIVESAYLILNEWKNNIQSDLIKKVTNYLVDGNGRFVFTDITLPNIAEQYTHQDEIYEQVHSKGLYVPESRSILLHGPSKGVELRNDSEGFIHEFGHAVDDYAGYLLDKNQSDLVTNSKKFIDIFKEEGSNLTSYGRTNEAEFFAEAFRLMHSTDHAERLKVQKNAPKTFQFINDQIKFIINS
# Assay Details: Lethal factor protease inhibitors, Bacillus anthracis, multiplex microsphere cleavage assay, validation set (AID 588461)
# Assay Context: flow cytometry, at 10 µM, active compounds read high
Observable: inhibition (%)
Report the value in % with no unit label.

COc1ccc(C(=O)/C=C/c2cc(C(=O)O)cc3c2OCOC3)c(O)c1 : 4.4
N#C/C(=C/c1ccccc1)C(=O)NCc1ccccc1 : -7.6

Any idea what inhibition came out for CCOC(=O)C1C(=O)CC(C)(O)C(C(=O)OCC)C1/C=C/c1ccccc1 (stereo unspecified) on Lethal factor (Bacillus anthracis) (UniProt P15917)?
-1.4

Same again, this time with CC[C@H]1OC(=O)[C@H](C)[C@@H](O[C@H]2C[C@@](C)(OC)[C@@H](O)[C@H](C)O2)[C@H](C)[C@@H](O[C@@H]2O[C@H](C)C[C@H](N(C)C)[C@H]2O)[C@](C)(O)C[C@@H](C)[C@@H]2N[C@@H](COCCOC)O[C@H]([C@H]2C)[C@]1(C)O
-1.4

Another molecule to look at: COc1cc2oc(-c3ccc(O)cc3)cc(=O)c2c(OC)c1O
-2.3

Also CC(C)(C)N1NC2(CCCCC2)NC1=S , if possible.
-1.4

// same read-out, input: CC(=O)Oc1c2occc2cc2ccc(=O)oc12
-7.3

Queued: Cc1ccc2c(c1)C1CN(C)CCC1N2S(=O)(=O)c1ccc(Oc2ccc([N+](=O)[O-])cc2)cc1 (stereo unspecified)
8.4

Next record, please: COc1ccc2oc(=O)c(-c3nc(C)cs3)cc2c1
-0.1

Also check CCOC(=O)n1c(=O)oc2ccccc21
-4
